Reference source for all entries: ChEMBL document CHEMBL1148785

tested on: Plasmodium falciparum; assay: Inhibition of Plasmodium falciparum protein farnesyltransferase at 0.5 nM by scintillation proximity assay
Assign inhibition to each entry below.
Just the number plus its unit, please.

Some solved cases for reference:
INSERT INTO results (molecule, experimental_system, data_value) VALUES
  ('Cn1cc(S(=O)(=O)N(Cc2ccc(S(C)(=O)=O)cc2)C2Cc3cc(C#N)ccc3N(Cc3cncn3C)C2)cn1 (stereo not drawn)', 'Plasmodium falciparum', '36%'),
  ('Cn1cncc1CN1CC(N(CCC2(C)OCC(C)(C)CO2)S(=O)(=O)c2ccccn2)Cc2cc(C#N)ccc21 (stereo not drawn)', 'Plasmodium falciparum', '18%');

Now consider the entry below.
input: Tell me measured inhibition for CC(C)NC(=O)c1ccc2c(c1)CC(N(CC(=O)NC(C)(C)C)S(=O)(=O)c1cn(C)cn1)CN2Cc1cncn1C (stereo not drawn) please.
output: 14%

###

tested on: Plasmodium falciparum; test: Inhibition of Plasmodium falciparum protein farnesyltransferase at 0.5 nM by scintillation proximity assay
Assign inhibition to each entry below.
Answers are plain numbers, in %.

INSERT INTO measurements (compound, value_unit, data_value) VALUES
  ('CC(=O)N(Cc1ccccc1F)C1Cc2cc(C#N)ccc2N(Cc2cncn2C)C1 (stereo not given)', '%', 0),
  ('Cn1cnc(CN2CC(N(CC(=O)NC(C)(C)C)S(=O)(=O)c3ccccc3)Cc3cc(-c4ccccc4)ccc32)c1 (stereo not given)', '%', 0),
  ('CC(=O)Nc1nc(C)c(S(=O)(=O)N(CC(=O)NC(C)(C)C)C2Cc3cc(C#N)ccc3N(Cc3cncn3C)C2)s1 (stereo not given)', '%', 5),
  ('Cn1cncc1CN1CC(N(CC2CCN(C(=O)c3ccccc3)CC2)S(=O)(=O)c2ccccn2)Cc2cc(C#N)ccc21 (stereo not given)', '%', 63);

input: Tell me measured inhibition for Cn1cnc(CN2CC(N(CC(=O)NC(C)(C)C)S(C)(=O)=O)Cc3cc(-c4ccccc4)ccc32)c1 (stereo not given) please.
output: 0

###

tested on: Plasmodium falciparum; experiment: Inhibition of Plasmodium falciparum protein farnesyltransferase at 5 nM by scintillation proximity assay
Assign inhibition to each entry below.
Numbers only, in %.

Some solved cases for reference:
INSERT INTO measurements (compound, data_value) VALUES
  ('Cn1cncc1CN1CC(N(CCn2cccc2)S(=O)(=O)c2ccccn2)Cc2cc(C#N)ccc21 (stereo not drawn)', 96),
  ('CN(C1Cc2cc(-c3ccccc3)ccc2N(Cc2cn(C)cn2)C1)S(=O)(=O)c1cn(C)cn1 (stereo not drawn)', 38);

Now consider the entry below.
input: Tell me measured inhibition for COCCCCCN(C1Cc2cc(C#N)ccc2N(Cc2cncn2C)C1)S(=O)(=O)c1ccccn1 (stereo not drawn) please.
output: 65

###

tested on: Plasmodium falciparum; test: Antimalarial activity against Plasmodium falciparum K1; assay type: functional; conditions: Plasmodium falciparum, K1; read-out: ED50 (the source's name)
Criterion: EC50 strictly under 1000 nM. Met: 1. Not met: -1.

INSERT INTO measurements (molecule, group) VALUES
  ('Cn1cncc1CN1CC(N(CC2CCN(C(=O)N3CCCC3)CC2)S(=O)(=O)c2ccccn2)Cc2cc(C#N)ccc21 (stereo not drawn)', 1),
  ('Cn1cnc(S(=O)(=O)N(CCCN)C2Cc3cc(C#N)ccc3N(Cc3cncn3C)C2)c1 (stereo not drawn)', -1),
  ('Cn1cncc1CN1CC(N(Cc2ccc(S(C)(=O)=O)cc2)S(=O)(=O)c2ccccn2)Cc2cc(C#N)ccc21 (stereo not drawn)', 1),
  ('Cn1cncc1CN1CC(N(CC2CCN(C(=O)OCc3ccccc3)CC2)S(=O)(=O)c2ccccn2)Cc2cc(C#N)ccc21 (stereo not drawn)', 1),
  ('Cn1cnc(S(=O)(=O)N(Cc2ccc(C(=O)O)cc2)C2Cc3cc(C#N)ccc3N(Cc3cncn3C)C2)c1 (stereo not drawn)', -1);

input: Take the molecule COC(=O)N1CCC(CN(C2Cc3cc(C#N)ccc3N(Cc3cncn3C)C2)S(=O)(=O)c2cn(C)c(C)n2)CC1 (stereo not drawn) and say whether its EC50 is less than 1000 nM.
output: 1

input: Take the molecule Cn1cnc(S(=O)(=O)N(CC(=O)OC(C)(C)C)C2Cc3cc(C#N)ccc3N(Cc3cncn3Cc3ccccc3)C2)c1 (stereo not drawn) and say whether its EC50 is less than 1000 nM.
output: 1

input: Take the molecule Cn1cnc(S(=O)(=O)N(Cc2ccc3ccccc3c2Br)C2Cc3cc(C#N)ccc3N(Cc3cncn3C)C2)c1 (stereo not drawn) and say whether its EC50 is less than 1000 nM.
output: -1

input: Take the molecule Cn1cncc1CN1CC(N(CC(=O)O)S(=O)(=O)c2ccccn2)Cc2cc(C#N)ccc21 (stereo not drawn) and say whether its EC50 is less than 1000 nM.
output: -1

input: Take the molecule COC(=O)N1CCC(CN(C2Cc3cc(C#N)ccc3N(Cc3cccnc3)C2)S(=O)(=O)c2ccccn2)CC1 (stereo not drawn) and say whether its EC50 is less than 1000 nM.
output: -1

input: Take the molecule COC(=O)N1CCC(CN(C2Cc3cc(C#N)ccc3N(Cc3cncn3C)C2)S(=O)(=O)c2ccc3c(c2)OCCCO3)CC1 (stereo not drawn) and say whether its EC50 is less than 1000 nM.
output: 1

input: Take the molecule Cn1cncc1CN1CC(N(Cc2ccc(S(C)(=O)=O)cc2)S(=O)(=O)c2ccccc2Cl)Cc2cc(C#N)ccc21 (stereo not drawn) and say whether its EC50 is less than 1000 nM.
output: 1

input: Take the molecule Cn1cncc1CN1CC(N(CC2CCN(C(=O)N3CCCCC3)CC2)S(=O)(=O)c2ccccn2)Cc2cc(C#N)ccc21 (stereo not drawn) and say whether its EC50 is less than 1000 nM.
output: 1

input: Take the molecule COC(=O)N1CCC(CN(C2Cc3cc(C#N)ccc3N(Cc3cncn3C)C2)S(=O)(=O)c2ccccc2Cl)CC1 (stereo not drawn) and say whether its EC50 is less than 1000 nM.
output: 1

input: Take the molecule Cn1cnc(S(=O)(=O)N2CCC(CN(C3Cc4cc(C#N)ccc4N(Cc4cncn4C)C3)S(=O)(=O)c3ccccn3)CC2)c1 (stereo not drawn) and say whether its EC50 is less than 1000 nM.
output: 1

input: Take the molecule Cn1cncc1CN1CC(N(Cc2cccc3cccnc23)S(=O)(=O)c2ccccn2)Cc2cc(C#N)ccc21 (stereo not drawn) and say whether its EC50 is less than 1000 nM.
output: -1

input: Take the molecule Cn1cnc(C(=O)N(CC(=O)OC(C)(C)C)C2Cc3cc(C#N)ccc3N(Cc3cncn3C)C2)c1 (stereo not drawn) and say whether its EC50 is less than 1000 nM.
output: -1

###

tested on: Plasmodium falciparum; assay: Antimalarial activity against Plasmodium falciparum K1; type: functional; conditions: Plasmodium falciparum, K1; read-out: ED50 (the source's name)
pEC50: −log10 of the molar value.
Observation Type: pEC50

INSERT INTO results (molecule, observation_type, data_value) VALUES
  ('Cn1cnc(S(=O)(=O)N(CCCCN2C(=O)c3ccccc3C2=O)C2Cc3cc(C#N)ccc3N(Cc3cncn3C)C2)c1 (stereo not drawn)', 'pEC50', 6.89),
  ('COC(=O)N1CCC(CN(C2Cc3cc(C#N)ccc3N(Cc3cncn3C)C2)S(C)(=O)=O)CC1 (stereo not drawn)', 'pEC50', '< 5.30');

Now consider the entry below.
input: Look up and report measured pEC50 (Plasmodium falciparum) for the following molecule: Cc1oncc1S(=O)(=O)N(CC(=O)NC(C)(C)C)C1Cc2cc(C#N)ccc2N(Cc2cncn2C)C1 (stereo not drawn)
output: < 5.30

###

system: Plasmodium falciparum; assay: Inhibition of Plasmodium falciparum protein farnesyltransferase at 0.5 nM by scintillation proximity assay
// label = met if inhibition is not less than 20%, otherwise not met

These recorded examples may help you get a feel for the data.
INSERT INTO results (compound, group) VALUES
  ('Cn1cnc(S(=O)(=O)N(CC(=O)NC(C)(C)C)C2Cc3cc(C(=O)NC4CCCCC4)ccc3N(Cc3cncn3C)C2)c1 (centres undefined)', 'not met'),
  ('Cn1cnc(S(=O)(=O)N(Cc2ccccc2F)C2Cc3cc(C#N)ccc3N(Cc3cncn3C)C2)c1 (stereo in doubt; 110)', 'met'),
  ('Cn1cncc1CN1CC(N(CC2CCN(C(=O)CNC(=O)OC(C)(C)C)CC2)S(=O)(=O)c2ccccn2)Cc2cc(C#N)ccc21 (centres undefined)', 'met'),
  ('Cn1cnc(S(=O)(=O)N(Cc2ccccn2)C2Cc3cc(C#N)ccc3N(Cc3cncn3C)C2)c1 (centres undefined)', 'met'),
  ('CCN(CCCCN(C1Cc2cc(C#N)ccc2N(Cc2cncn2C)C1)S(=O)(=O)c1ccccn1)C(=O)OC (centres undefined)', 'met');

input: Quick check: does CC(C)OC(=O)N1CCC(CN(C2Cc3cc(-c4ccccc4)ccc3N(Cc3cn(C)cn3)C2)S(=O)(=O)c2cn(C)cn2)CC1 (centres undefined) have inhibition greater than or equal to 20%?
output: not met

input: Quick check: does Cc1oncc1S(=O)(=O)N(CC(=O)NC(C)(C)C)C1Cc2cc(C#N)ccc2N(Cc2cncn2C)C1 (centres undefined) have inhibition greater than or equal to 20%?
output: not met

input: Quick check: does Cn1cnc(S(=O)(=O)N(Cc2ccc(S(=O)(=O)c3ccccc3)cc2)C2Cc3cc(C#N)ccc3N(Cc3cncn3C)C2)c1 (centres undefined) have inhibition greater than or equal to 20%?
output: met

input: Quick check: does COC(=O)N1CCC(CN(C2Cc3cc(C#N)ccc3N(Cc3cncn3C)C2)S(C)(=O)=O)CC1 (centres undefined) have inhibition greater than or equal to 20%?
output: not met

input: Quick check: does Cn1cncc1CN1CC(N(Cc2cccc3cccnc23)S(=O)(=O)c2ccccn2)Cc2cc(C#N)ccc21 (centres undefined) have inhibition greater than or equal to 20%?
output: not met

input: Quick check: does Cn1cncc1CN1CC(N(Cc2ccccc2C(F)(F)F)S(=O)(=O)c2ccccn2)Cc2cc(C#N)ccc21 (centres undefined) have inhibition greater than or equal to 20%?
output: not met
